- experimentDescription: IANBD-channel fluorescence artefacts in buffer – biochemical, artefact control for cardiac RTF calcium sensitizer project, confirmation (AID 504382)
- conditionContext: IANBD fluorescence interference counterscreen, EC20 Ca2+, at 7.2 µM, scaled: EC20 calcium 0, EC100 calcium 100
The campaign covered roughly 2,500 compounds. About 460 (18%) were called active.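 Rule for the calls: active = mean activation above a cutoff of low control average plus 3 SD from the earlier screen (cut at about 12% in these data); inactive = the rest.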 Not all results are given here.
Write down the outcome that applies. Available outcomes: y (active), n (inactive)

1) CCN1CCN(Cc2c(O)ccc3c2O/C(=C\C=C\c2ccccc2OC)C3=O)CC1
n
2) COC(=O)c1ccc(-c2ccc(F)cc2)nc1C
n
3) COc1ccccc1NC(=O)COC(=O)c1cnc(C)cn1
y
4) COc1ccccc1NC(=O)CC(=O)CSc1nnc(-c2ccc(C)cc2)n1-c1ccccc1
n

We next turn to a different compound, shown below.
Field: outcome | Entry: "COCCn1c(SCC#N)nnc1-c1ccc([N+](=O)[O-])cc1"
n
